Some molecules, each annotated with its measured ΔTm.
# System: Nucleic Acid
# Protocol Text: Binding affinity to hairpin-ACCA oligonucleotide assessed as change in melting temperature at drug to DNA ratio of 1
# Type: nucleic-acid assay
Response body: numeric value in °C, unit text excluded.

Solved cases (4 shown):
Molecular String	ΔTm [°C]
CC(C)NC(=N)c1ccc(-c2ccc(-c3nc4ccc(C(=N)NC(C)C)cc4s3)o2)cc1	2.8
N=C(N)c1ccc2nc(-c3ccc(-c4nc5ccc(C(=N)N)cc5s4)o3)sc2c1	1.1
c1cc2nc(-c3ccc(-c4nc5ccc(C6=NCCN6)cc5s4)o3)sc2cc1C1=NCCN1	2.1
CC(C)NC(=N)c1ccc(-c2ccc(-c3nc4ccc(C(=N)NC(C)C)cc4s3)s2)cc1.Cl.Cl	2.6

c1cc2nc(-c3ccc(-c4nc5ccc(C6=NCCN6)cc5s4)s3)sc2cc1C1=NCCN1 has a reported ΔTm of 0

---

# System: Nucleic Acid
# Protocol Text: Binding affinity to hairpin-ATTA oligonucleotide assessed as change in melting temperature at drug to DNA ratio of 1
# Assay type: nucleic-acid assay
Some molecules, each annotated with its measured ΔTm.
Reply with a number, then the unit it belongs to.

Molecular String	Reported Value
N=C(N)c1ccc2nc(-c3ccc(-c4nc5ccc(C(=N)N)cc5s4)s3)sc2c1	3.3 °C
CC(C)NC(=N)c1ccc(-c2ccc(-c3nc4ccc(C(=N)NC(C)C)cc4s3)o2)cc1	4.1 °C
c1cc2nc(-c3ccc(-c4nc5ccc(C6=NCCN6)cc5s4)s3)sc2cc1C1=NCCN1	1.1 °C
N=C(N)c1ccc2nc(-c3ccc(-c4nc5ccc(C(=N)N)cc5s4)o3)sc2c1	1.1 °C
Cl.Cl.c1cc(-c2ccc(-c3nc4ccc(C5=NCCN5)cc4s3)s2)ccc1C1=NCCN1	0.8 °C

c1cc2nc(-c3ccc(-c4nc5ccc(C6=NCCN6)cc5s4)o3)sc2cc1C1=NCCN1 has a reported ΔTm of 4.4 °C

c1cc(-c2ccc(-c3nc4ccc(C5=NCCN5)cc4s3)o2)ccc1C1=NCCN1 has a reported ΔTm of 6.8 °C

CC(C)NC(=N)c1ccc(-c2ccc(-c3nc4ccc(C(=N)NC(C)C)cc4s3)s2)cc1.Cl.Cl has a reported ΔTm of 5.7 °C

---

# Tested on: Nucleic Acid
# Protocol Text: Binding affinity to hairpin-TTAA oligonucleotide assessed as change in melting temperature at drug to DNA ratio of 1
# Type: nucleic-acid assay
Some compounds, each annotated with its measured ΔTm.
Response body: numeric value in °C, unit text excluded.

Solved cases (2 shown):
Molecular String	Assay Readout	Reported Value
Cl.Cl.c1cc(-c2ccc(-c3nc4ccc(C5=NCCN5)cc4s3)s2)ccc1C1=NCCN1	ΔTm	2.1
CC(C)NC(=N)c1ccc(-c2ccc(-c3nc4ccc(C(=N)NC(C)C)cc4s3)s2)cc1.Cl.Cl	ΔTm	6.7

As a next step, examine the compound that follows.
CC(C)NC(=N)c1ccc(-c2ccc(-c3nc4ccc(C(=N)NC(C)C)cc4s3)o2)cc1 has a reported ΔTm of 7.7

---

# Test system: Nucleic Acid
# Protocol Text: Binding affinity to hairpin-ACCA oligonucleotide assessed as change in melting temperature at drug to DNA ratio of 1
# Format: nucleic-acid assay
Assay Readout: ΔTm (°C)
Response body: numeric value in °C, unit text excluded.

Cl.Cl.c1cc(-c2ccc(-c3nc4ccc(C5=NCCN5)cc4s3)s2)ccc1C1=NCCN1 has a reported ΔTm of 1.5

N=C(N)c1ccc2nc(-c3ccc(-c4nc5ccc(C(=N)N)cc5s4)s3)sc2c1 has a reported ΔTm of 0

c1cc(-c2ccc(-c3nc4ccc(C5=NCCN5)cc4s3)o2)ccc1C1=NCCN1 has a reported ΔTm of 3.6

---

# Tested on: Calf thymus DNA
# Protocol Text: Binding affinity to calf thymus DNA assessed as change in melting temperature at drug to DNA ratio of 0.1
# Setup Conditions: Bos taurus
Assay Readout: ΔTm (°C)
Response body: numeric value in °C, unit text excluded.

Solved cases (7 shown):
Molecular String	ΔTm (°C)
c1cc2nc(-c3ccc(-c4nc5ccc(C6=NCCN6)cc5s4)s3)sc2cc1C1=NCCN1	2.3
N=C(N)c1ccc2nc(-c3ccc(-c4nc5ccc(C(=N)N)cc5s4)o3)sc2c1	9.5
CC(C)NC(=N)c1ccc(-c2ccc(-c3nc4ccc(C(=N)NC(C)C)cc4s3)o2)cc1	12.7
CC(C)NC(=N)c1ccc(-c2ccc(-c3nc4ccc(C(=N)NC(C)C)cc4s3)s2)cc1.Cl.Cl	14.2
Cl.Cl.c1cc(-c2ccc(-c3nc4ccc(C5=NCCN5)cc4s3)s2)ccc1C1=NCCN1	13.9
c1cc(-c2ccc(-c3nc4ccc(C5=NCCN5)cc4s3)o2)ccc1C1=NCCN1	18
c1cc2nc(-c3ccc(-c4nc5ccc(C6=NCCN6)cc5s4)o3)sc2cc1C1=NCCN1	17.3

As a next step, examine the molecule that follows.
N=C(N)c1ccc2nc(-c3ccc(-c4nc5ccc(C(=N)N)cc5s4)s3)sc2c1 has a reported ΔTm of 7.6

---

# Tested on: Nucleic Acid
# Protocol Text: Binding affinity to hairpin-GCGC oligonucleotide assessed as change in melting temperature at drug to DNA ratio of 1
Assay Readout: ΔTm
Reply with a number, then the unit it belongs to.

Solved cases (2 shown):
Molecular String	ΔTm
c1cc(-c2ccc(-c3nc4ccc(C5=NCCN5)cc4s3)o2)ccc1C1=NCCN1	6.6 °C
Cl.Cl.c1cc(-c2ccc(-c3nc4ccc(C5=NCCN5)cc4s3)s2)ccc1C1=NCCN1	3.5 °C

c1cc2nc(-c3ccc(-c4nc5ccc(C6=NCCN6)cc5s4)o3)sc2cc1C1=NCCN1 has a reported ΔTm of 1.6 °C

---

# Tested on: Calf thymus DNA
# Protocol Text: Binding affinity to calf thymus DNA assessed as DNA intercalation at 1 to 50 uM by circular dichroism analysis
# Type: nucleic-acid assay
# Setup Conditions: Bos taurus
Calls of active or inactive are those of the source. No cut-off for these calls is given here.

Molecular String	Activity
c1cc2nc(-c3ccc(-c4nc5ccc(C6=NCCN6)cc5s4)s3)sc2cc1C1=NCCN1	inactive
N=C(N)c1ccc2nc(-c3ccc(-c4nc5ccc(C(=N)N)cc5s4)o3)sc2c1	inactive
c1cc2nc(-c3ccc(-c4nc5ccc(C6=NCCN6)cc5s4)o3)sc2cc1C1=NCCN1	inactive
N=C(N)c1ccc2nc(-c3ccc(-c4nc5ccc(C(=N)N)cc5s4)s3)sc2c1	inactive

---

# Test system: Nucleic Acid
# Protocol Text: Binding affinity to hairpin-TTAA oligonucleotide assessed as change in melting temperature at drug to DNA ratio of 1
# Assay type: nucleic-acid assay
Assay Readout: ΔTm
Reply with a number, then the unit it belongs to.

Solved cases (4 shown):
Molecular String	ΔTm
N=C(N)c1ccc2nc(-c3ccc(-c4nc5ccc(C(=N)N)cc5s4)s3)sc2c1	0.6 °C
c1cc2nc(-c3ccc(-c4nc5ccc(C6=NCCN6)cc5s4)s3)sc2cc1C1=NCCN1	0 °C
N=C(N)c1ccc2nc(-c3ccc(-c4nc5ccc(C(=N)N)cc5s4)o3)sc2c1	1.8 °C
c1cc2nc(-c3ccc(-c4nc5ccc(C6=NCCN6)cc5s4)o3)sc2cc1C1=NCCN1	4.3 °C

c1cc(-c2ccc(-c3nc4ccc(C5=NCCN5)cc4s3)o2)ccc1C1=NCCN1 has a reported ΔTm of 8.6 °C

---

# Tested on: Nucleic Acid
# Protocol Text: Binding affinity to hairpin-AATT oligonucleotide assessed as change in melting temperature at drug to DNA ratio of 1
# Format: nucleic-acid assay
Assay Readout: ΔTm (°C)
Response body: numeric value in °C, unit text excluded.

Molecular String	System Tested	ΔTm / °C
N=C(N)c1ccc2nc(-c3ccc(-c4nc5ccc(C(=N)N)cc5s4)o3)sc2c1	Nucleic Acid	2.6
CC(C)NC(=N)c1ccc(-c2ccc(-c3nc4ccc(C(=N)NC(C)C)cc4s3)s2)cc1.Cl.Cl	Nucleic Acid	10.1
c1cc2nc(-c3ccc(-c4nc5ccc(C6=NCCN6)cc5s4)o3)sc2cc1C1=NCCN1	Nucleic Acid	9.3

CC(C)NC(=N)c1ccc(-c2ccc(-c3nc4ccc(C(=N)NC(C)C)cc4s3)o2)cc1 has a reported ΔTm of 11.4

c1cc(-c2ccc(-c3nc4ccc(C5=NCCN5)cc4s3)o2)ccc1C1=NCCN1 has a reported ΔTm of 15.5

Cl.Cl.c1cc(-c2ccc(-c3nc4ccc(C5=NCCN5)cc4s3)s2)ccc1C1=NCCN1 has a reported ΔTm of 3.5

c1cc2nc(-c3ccc(-c4nc5ccc(C6=NCCN6)cc5s4)s3)sc2cc1C1=NCCN1 has a reported ΔTm of 0.4

N=C(N)c1ccc2nc(-c3ccc(-c4nc5ccc(C(=N)N)cc5s4)s3)sc2c1 has a reported ΔTm of 1.8

---

# Test system: Nucleic Acid
# Protocol Text: Binding affinity to hairpin-GCGC oligonucleotide assessed as change in melting temperature at drug to DNA ratio of 1
Some compounds, each annotated with its measured ΔTm.
Response body: numeric value in °C, unit text excluded.

Solved cases (3 shown):
Molecular String	ΔTm / °C
CC(C)NC(=N)c1ccc(-c2ccc(-c3nc4ccc(C(=N)NC(C)C)cc4s3)s2)cc1.Cl.Cl	4.1
c1cc2nc(-c3ccc(-c4nc5ccc(C6=NCCN6)cc5s4)s3)sc2cc1C1=NCCN1	0
N=C(N)c1ccc2nc(-c3ccc(-c4nc5ccc(C(=N)N)cc5s4)o3)sc2c1	4.2

CC(C)NC(=N)c1ccc(-c2ccc(-c3nc4ccc(C(=N)NC(C)C)cc4s3)o2)cc1 has a reported ΔTm of 9.8

N=C(N)c1ccc2nc(-c3ccc(-c4nc5ccc(C(=N)N)cc5s4)s3)sc2c1 has a reported ΔTm of 0.6
